Target: aromatase (Homo sapiens, UniProt P11511)
Construct: Aromatase was obtained from the microsomal fraction of human placental tissue; from tissue; host or cells: human placenta, microsomal fraction
Sequence (P11511 1-503): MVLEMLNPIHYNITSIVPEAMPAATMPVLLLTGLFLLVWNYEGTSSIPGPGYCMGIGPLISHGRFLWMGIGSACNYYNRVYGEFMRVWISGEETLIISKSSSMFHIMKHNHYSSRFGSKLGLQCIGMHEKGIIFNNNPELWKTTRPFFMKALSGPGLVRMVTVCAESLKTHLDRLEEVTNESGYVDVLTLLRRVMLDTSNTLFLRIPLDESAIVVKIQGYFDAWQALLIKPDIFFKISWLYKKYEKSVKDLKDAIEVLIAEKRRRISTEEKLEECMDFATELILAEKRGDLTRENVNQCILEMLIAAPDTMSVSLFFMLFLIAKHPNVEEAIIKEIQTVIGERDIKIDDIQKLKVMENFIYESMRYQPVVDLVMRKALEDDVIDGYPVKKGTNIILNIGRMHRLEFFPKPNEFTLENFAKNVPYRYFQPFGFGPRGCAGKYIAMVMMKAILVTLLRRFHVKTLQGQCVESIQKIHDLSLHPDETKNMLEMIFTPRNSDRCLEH
Test: Aromatase inhibition, (1,2-^3H) testosterone as substrate (1.5 micromolar), microsomal fraction of human placental tissue
Format: biochemical
Conditions: 1.5 micromolar (^3H) testosterone; 30° C.; "None" = no inhibition
Would you mind telling me the reported pIC50 of each entry?
Answers are plain numbers, as −log10 of the molar value.

Observe how each entry below is paired with its result.
                                   compound                              study_system  reported_metric  test_result
0  O=C1CCC(CCC(F)(F)C(F)(F)C(F)(F)F)(c2ccncc2)C(=O)N1 (stereo not shown)  aromatase (Homo sapiens, UniProt P11511)            pIC50         4.74
1  CCC1(c2ccncc2)CCC(=O)N(CCC(F)(F)C(F)(F)C(F)(F)F)C1=O (stereo not shown)  aromatase (Homo sapiens, UniProt P11511)            pIC50         5.52
2  CCC1(c2ccncc2)CCC(=O)N(CCC(F)(F)F)C1=O (stereo not shown)  aromatase (Homo sapiens, UniProt P11511)            pIC50         4.96
3  CCC1(c2ccncc2)CCC(=O)N(CCC(F)(F)C(F)(F)C(F)(F)C(F)(F)C(F)(F)C(F)(F)C(F)(F)C(F)(F)F)C1=O (stereo not shown)  aromatase (Homo sapiens, UniProt P11511)            pIC50         4.82
4  CCCCCC1(c2ccncc2)CCC(=O)NC1=O (stereo not shown)  aromatase (Homo sapiens, UniProt P11511)            pIC50         5.49

Provide each entry's pIC50 from the list below.
1. CCC1(c2ccncc2)CCC(=O)N(CC2CCCCC2)C1=O (stereo not shown) [R1=C2 H5, R2=[drawing 7]]
2. CCC1(c2ccncc2)CCC(=O)N(CC(F)(F)F)C1=O (stereo not shown)
3. CCC1(c2ccncc2)CCC(=O)N(CCC(F)(F)C(F)(F)C(F)(F)C(F)(F)F)C1=O (stereo not shown)
4. CCCCCCCCC1(c2ccncc2)CCC(=O)N(CCCCCC)C1=O (stereo not shown) [R1=n-C8 H17, R2=n-C6 H13, reference compound]

Found:
5.05
4.85
5.05
5.00
